B1: LINE1-full (parent)
chain: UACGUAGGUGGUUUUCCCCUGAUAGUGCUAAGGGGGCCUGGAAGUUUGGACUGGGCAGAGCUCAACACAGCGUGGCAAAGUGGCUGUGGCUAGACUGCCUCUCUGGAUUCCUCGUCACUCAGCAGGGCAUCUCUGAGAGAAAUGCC

Variants of: B1
Assay: self-cleavage, relative activity (ratio to wild type); higher = more cleavage; in vitro, sequencing; the parent is a self-cleaving ribozyme
The following variants are listed with their measured self-cleavage values.
Answer with a number only.

Mutation	self-cleavage
A121G U134G	1.58
G44C U45C	1.02
A67G C113U	0.44
C16A A79G	0.62

We next turn to a different variant, shown below.
Fill in the blank: the reported self-cleavage of U23C U73C is ____. 1.81

Origin of the recorded values: the RNAGym collection of RNA variant scans (doi:10.7554/elife.90254)
